test system: Staphylococcus aureus; test: Antibacterial activity against Staphylococcus aureus by agar cup-plate assay method; format: functional
The following compounds are listed with their measured inhibition zone (IZ) values.

1) Clc1ccc(/C=C/c2ccc(Cl)cc2Cl)cc1
24 mm
2) Clc1ccc(/C=C/c2ccc(Cl)c(Cl)c2)c(Cl)c1
28 mm
3) Fc1ccc(/C=C/c2cccc(Cl)c2)cc1
22 mm

Looking up `Clc1ccc(/C=C/c2ccc(Cl)cc2Cl)c(Cl)c1` , I see its inhibition zone (IZ) listed as 24 mm

Looking up `Fc1ccc(/C=C/c2ccc(F)cc2)cc1` , I see its inhibition zone (IZ) listed as 24 mm

Looking up `Fc1ccc(/C=C/c2cccc(F)c2)cc1` , I see its inhibition zone (IZ) listed as 28 mm

###

test system: Radical scavenging activity; assay: Antioxidant activity assessed as DPPH radical scavenging activity at 2500 ug/ml; type: functional
The following compounds are listed with their measured Activity values.
Kindly provide the numeric value in % only, without the unit symbol.

# count of solved cases: 5
1) Fc1ccc(/C=C/c2ccc(F)c(F)c2)cc1
48.1
2) Clc1ccc(/C=C/c2ccc(Cl)cc2Cl)cc1
47.2
3) Clc1ccc(/C=C/c2ccc(Cl)cc2Cl)c(Cl)c1
56.4
4) Fc1ccc(/C=C/c2cccc(Cl)c2)cc1
39.8
5) Clc1ccc(/C=C/c2ccc(Cl)c(Cl)c2)c(Cl)c1
58

Looking up `Fc1ccc(/C=C/c2ccc(F)cc2F)cc1` , I see its Activity listed as 52.5

###

The following compounds are listed with their measured inhibition zone (IZ) values.
test system: Staphylococcus aureus; experiment: Antibacterial activity against Staphylococcus aureus by agar cup-plate assay method; assay type: functional
Kindly provide the numeric value in mm only, without the unit symbol.

1) Clc1cccc(/C=C/c2ccc(Cl)cc2Cl)c1
26
2) Fc1ccc(/C=C/c2ccc(Cl)cc2)cc1
20

Shifting focus to the compound that follows.
Looking up `Fc1ccc(/C=C/c2ccc(F)c(F)c2)cc1` , I see its inhibition zone (IZ) listed as 36

###

The following molecules are listed with their measured inhibition zone (IZ) values.
tested on: Staphylococcus aureus; assay: Antibacterial activity against Staphylococcus aureus by agar cup-plate assay method; type: functional

1) Cc1ccc(/C=C/c2ccc(Cl)cc2Cl)cc1
12 mm
2) Fc1ccc(/C=C/c2ccc(Cl)cc2Cl)cc1
18 mm
3) Fc1ccc(/C=C/c2ccc(F)cc2F)cc1
30 mm
4) CC1(C)S[C@@H]2[C@H](NC(=O)Cc3ccccc3)C(=O)N2[C@H]1C(=O)O
40 mm

Shifting focus to the molecule that follows.
Looking up Cc1ccc(/C=C/c2ccc(C)cc2)cc1 [(E)-1,2-DI-P-TOLYLETHENE] , I see its inhibition zone (IZ) listed as 20 mm

###

system: Radical scavenging activity; assay: Antioxidant activity assessed as DPPH radical scavenging activity at 2500 ug/ml; assay type: functional
# note: boundary value 50% maps to False; Activity below it maps to True

These solved cases illustrate the format of a correct answer.
1) Cc1ccc(/C=C/c2ccc(C)cc2)cc1 [(E)-1,2-DI-P-TOLYLETHENE]
True
2) Cc1ccc(/C=C/c2ccc(F)cc2)cc1
True

With those in mind, consider the next compound.
Given `Cc1ccc(/C=C/c2ccc(Cl)cc2Cl)cc1` , is recorded Activity strictly lower than 50%?
True

###

test system: Radical scavenging activity; assay: Antioxidant activity assessed as DPPH radical scavenging activity at 2500 ug/ml; assay type: functional
The following compounds are listed with their measured Activity values.
Kindly provide the numeric value in % only, without the unit symbol.

# count of solved cases: 4
1. Fc1ccc(/C=C/c2ccc(F)cc2)cc1
53.8
2. Fc1ccc(/C=C/c2ccc(Cl)cc2)cc1
45.5
3. Fc1ccc(/C=C/c2ccc(Cl)cc2Cl)cc1
39.3
4. Clc1cccc(/C=C/c2ccc(Cl)cc2Cl)c1
61.4

Shifting focus to the compound that follows.
Looking up `Fc1ccc(/C=C/c2cccc(F)c2)cc1` , I see its Activity listed as 49.5

Data provenance: ChEMBL document CHEMBL3045182
